These measurements were taken from patent US20260069689A1.

Biological target: SARS-COV-2 RBD extracellular domain expressed with a C-terminal myc-myc-hexahistidine tag (SARS-COV-2 RBD-mmH) (SARS-CoV-2)
Assay: SPR Biacore, mAb captured on anti-hFc, RBD-mmH analyte, 37 C
For each entry below, report its kon value.
One number for each entry, in M⁻¹ s⁻¹.

Solved entries:
mAb14281 (antibody, V domains shown) VH: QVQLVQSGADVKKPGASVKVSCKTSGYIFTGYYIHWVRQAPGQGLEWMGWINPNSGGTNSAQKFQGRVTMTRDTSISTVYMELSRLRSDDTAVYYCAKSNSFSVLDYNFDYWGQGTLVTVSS VL: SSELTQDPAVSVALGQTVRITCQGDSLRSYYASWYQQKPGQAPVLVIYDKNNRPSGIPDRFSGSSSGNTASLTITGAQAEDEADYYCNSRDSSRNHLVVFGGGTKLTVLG    1.12e+06
mAb14257 (antibody, V domains shown) VH: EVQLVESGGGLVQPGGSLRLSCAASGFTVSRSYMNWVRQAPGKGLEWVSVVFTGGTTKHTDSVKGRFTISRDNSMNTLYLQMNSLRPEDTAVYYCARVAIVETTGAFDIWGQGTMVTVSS VL: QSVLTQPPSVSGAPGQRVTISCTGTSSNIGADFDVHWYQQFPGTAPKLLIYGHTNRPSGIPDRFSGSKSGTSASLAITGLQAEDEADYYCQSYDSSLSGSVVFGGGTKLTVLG    3.26e+06
mAb14232 (antibody, V domains shown) VH: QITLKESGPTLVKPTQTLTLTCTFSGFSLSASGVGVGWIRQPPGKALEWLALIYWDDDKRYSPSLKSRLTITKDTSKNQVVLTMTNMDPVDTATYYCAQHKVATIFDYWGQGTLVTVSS VL: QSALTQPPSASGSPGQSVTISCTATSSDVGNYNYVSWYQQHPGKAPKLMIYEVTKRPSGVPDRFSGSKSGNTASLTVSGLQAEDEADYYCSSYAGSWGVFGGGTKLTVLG    4.69e+06
mAb14280 (antibody, V domains shown) VH: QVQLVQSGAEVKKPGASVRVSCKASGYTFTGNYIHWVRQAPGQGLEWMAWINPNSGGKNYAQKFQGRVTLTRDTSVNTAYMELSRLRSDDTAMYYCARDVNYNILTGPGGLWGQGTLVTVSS VL: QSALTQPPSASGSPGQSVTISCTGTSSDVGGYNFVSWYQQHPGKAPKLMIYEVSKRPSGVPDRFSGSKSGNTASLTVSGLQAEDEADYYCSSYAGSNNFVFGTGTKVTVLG    1.53e+06

Give kon for each listed item.
1. mAb14255 (antibody, V domains shown) VH: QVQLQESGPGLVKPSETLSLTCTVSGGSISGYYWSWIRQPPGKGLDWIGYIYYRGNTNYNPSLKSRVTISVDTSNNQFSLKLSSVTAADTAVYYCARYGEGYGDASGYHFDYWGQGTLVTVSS VL: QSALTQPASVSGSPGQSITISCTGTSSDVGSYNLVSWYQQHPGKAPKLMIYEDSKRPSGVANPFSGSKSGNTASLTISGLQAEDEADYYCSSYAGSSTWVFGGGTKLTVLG
2. mAb14234 (antibody, V domains shown) VH: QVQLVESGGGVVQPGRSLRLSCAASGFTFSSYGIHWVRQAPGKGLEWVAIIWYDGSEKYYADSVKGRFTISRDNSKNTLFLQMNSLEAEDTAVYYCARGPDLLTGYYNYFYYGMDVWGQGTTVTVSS VL: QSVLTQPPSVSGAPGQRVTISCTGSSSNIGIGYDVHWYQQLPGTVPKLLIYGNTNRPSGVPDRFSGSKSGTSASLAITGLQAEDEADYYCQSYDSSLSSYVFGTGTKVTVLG

A:
["1.94e+06", 534000]

Give kon for each listed item.
1. mAb14247 (antibody, V domains shown) VH: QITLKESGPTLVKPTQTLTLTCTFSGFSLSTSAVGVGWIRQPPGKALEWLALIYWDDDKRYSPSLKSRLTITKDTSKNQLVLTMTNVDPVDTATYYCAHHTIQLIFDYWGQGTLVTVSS VL: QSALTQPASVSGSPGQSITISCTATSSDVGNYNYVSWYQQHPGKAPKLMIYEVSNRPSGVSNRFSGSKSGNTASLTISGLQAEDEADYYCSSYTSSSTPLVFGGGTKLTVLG
2. mAb15165 (antibody, V domains shown) VH: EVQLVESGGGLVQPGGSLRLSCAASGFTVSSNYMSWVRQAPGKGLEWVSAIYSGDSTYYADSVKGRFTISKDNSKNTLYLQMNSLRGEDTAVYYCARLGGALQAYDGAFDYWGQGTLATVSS VL: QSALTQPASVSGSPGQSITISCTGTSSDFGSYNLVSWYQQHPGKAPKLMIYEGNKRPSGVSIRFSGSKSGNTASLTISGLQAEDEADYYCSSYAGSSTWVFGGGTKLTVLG

A:
832000
475000
